Collected z-score values appear next to each entry.
assay-method-text: mitochondrial membrane potential change in A549 cells, profiling panel, cell-based, JC-1 fluorescence, basal, 24 h, 100 nL (AID 1138);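 further: A549 lung adenocarcinoma cells under basal conditions with no added stimulus; test concentration not given here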
test-conditions: higher = more signal

Record excerpt, results attached:
O=C(NCC(F)(F)F)[C@@H]1c2ccccc2C(=O)N(Cc2cc(C(F)(F)F)cc(C(F)(F)F)c2)[C@H]1c1ccc(CO)cc1 : 1.89
COC(=O)[C@]1(Cc2ccccc2N=[N+]=[N-])N=C(c2ccc(OCCCO)cc2)O[C@@H]1c1ccccc1CN=[N+]=[N-] : -0.199
COC(=O)[C@@]1(Cc2ccc(F)cc2)[C@H]2c3cc(C(=O)N4CCCC4)n(CCSCCO)c3C[C@H]2CN1C(=O)c1ccccc1 : 0.281

Would you kindly look at the next entry?
Ask: I would be grateful if you could share the reported z-score for `COC(=O)[C@@]1(Cc2ccc(F)cc2)[C@H]2c3cc(C(=O)N(C)C)n(CCF)c3C[C@H]2CN1C(=O)c1ccccc1` .
Reply: 0.656

---

Form field: z-score (one value per entry).
assay-system: NADPH oxidase 5 (Homo sapiens)
assay-method-text: NOX5-dependent H2O2 signal modulators, primary screen, NOX inhibitor project, cell-based, HEK293-NOX5, Amplex Red fluorescence (AID 1161)
test-conditions: HEK293-NOX5, ionomycin, 45 min, higher = more signal
Returns: the value as a bare number; no unit string appended.

Worked cases, answers included:
[N-]=[N+]=Nc1ccccc1C[C@@]1(C(=O)NCC(O)CO)N=C(c2ccc(OCCCO)cc2)O[C@@H]1c1ccccc1N=[N+]=[N-] (stereo not given in full) : 1.85
CN1C2C=C(c3ccc(CO)cc3)C(C3C(=O)N(C(N)=O)C(=O)C32)C1C1CC1 (stereo not given) : -0.739
C=CCNC(=O)[C@H]1[C@@H]2C(=O)O[C@@H](c3ccccc3)[C@@H](c3ccccc3)N2[C@@H](c2ccc(O)cc2)[C@]12C(=O)N(C(=O)OCCOC)c1ccc(C#Cc3ccc(OC)cc3)cc12 : 1.13
C=C[C@H](OC)[C@@H](O)c1ccc(OC)c(O)c1 : -0.556
CC1C2C(CCCO)=CC(C3C(=O)N(C)C(=O)C23)N1Cc1cccc(OC(F)(F)F)c1 (stereo not given) : 0.455
CC(C)Cc1ccc(CN2CC[C@@H](NC(=O)c3ccccc3)C2)cc1 : -2.41
COc1ccc(NN2C(C(O)c3ccccc3)C=CC3C(=O)N(C4CCCCC4)C(=O)C32)cc1 (stereo not given) : -2.39
CCOC(=O)C[C@H]1[C@H](OC(=O)c2ccc(-c3ccccc3)cc2)[C@@H](NC(=O)C2CCCCC2)c2cc(OCCCO)ccc2N1C(=O)Cc1ccc(OC)cc1 : 0.732
COc1c(C)cc(-c2cc3c(c(CCc4ccccc4)n2)[Si](C(C)C)(C(C)C)O[C@H]3c2ccccc2)cc1C : 0.201
CC(C)[Si](C#Cc1ccccc1)(O[C@H](c1ccccc1)c1cn(Cc2ccccc2)nn1)C(C)C : -2.98

Ask: Entry `COC(=O)C[C@H]1O[C@]2(C(=O)N(C)c3ccccc32)[C@@H](C)[C@@H]1[Si](C)(C)c1ccccc1` : reported z-score = ?
Reply: -1.11

Ask: Tell me the measured z-score of `COC(=O)[C@@]1(Cc2ccccc2)[C@H]2c3cc(C(=O)N(C)C)n(Cc4nc5ccccc5[nH]4)c3C[C@H]2CN1C(=O)c1ccccc1` , please.
Reply: -0.155

Ask: // returns reported z-score for input C=CCC(OC(C)=O)[C@@H]1[C@@H](N(Cc2cccc3ccccc23)C(=O)c2ccc(C)cc2)c2cc(OCCCO)ccc2N1C(=O)Cc1ccc2ccccc2c1 (stereo not given in full)
Reply: 2.41

Ask: Return reported z-score; argument: `COc1cc(Cc2cc3c(c(CCc4ccccc4)n2)[Si](C(C)C)(C(C)C)O[C@H]3c2ccccc2)cc(OC)c1OC`
Reply: -3.87

Ask: For `COC(=O)[C@@]1(Cc2ccc(F)cc2)[C@H]2c3cc(C(=O)N4CCCC4)n(CCc4c[nH]c5cc(F)ccc45)c3C[C@H]2CN1C(=O)c1ccccc1` , what is its reported z-score?
Reply: 2.01
